Tested on: L1210 cells
Test name: L1210 murine leukemia cell growth inhibition in vitro
Format: cell-based
Cond: Mus musculus, 72 h, Table 1, three days incubation, 50% inhibition of growth, read-out: L1210 in vitro ID50
Endpoint label: IC50 (nM)

Below, each entry is followed by its recorded IC50 result.
Molecule: NCCn1nc2c3c(c(N)ccc31)Sc1ccccc1-2 [CH2CH2NH2 / NH2]
Target system: L1210 cells
Endpoint unit: nM
IC50: 110

Molecule: CCN(CC)CCn1nc2c3c(c(NC(C)=O)ccc31)Sc1ccccc1-2 [CH2CH2N(C2H5)2 / NHCOCH3]
Target system: L1210 cells
Endpoint unit: nM
IC50: 240

[A] Nc1ccc2c3c(nn2CCNCCO)-c2ccccc2Sc13 [CH2CH2NHCH2CH2OH / NH2]
[B] CCN(CC)CCn1nc2c3c(c(NCCNCCO)ccc31)Sc1ccccc1-2 [CH2CH2N(C2H5)2 / NHCH2CH2NHCH2CH2OH]
QUERY: Select the item whose IC50 value is smaller, choosing between A and B . Indicate which entry you chose by stating its label.
RESULT: B
